System: HCT116 cells
protocol-text: Annexin V-FITC/PI apoptosis assay, HCT116
Format: cell-based, human
conditions: HCT116, 24 h, 200 µM
Please use fulfilled for viable cells [%] AV- / PI- under 70% and not fulfilled for everything else, ties included.

{"structure": "CCc1occc(=S)c1[O-].F[P-](F)(F)(F)(F)F.[W+4].c1cc[cH-]c1.c1cc[cH-]c1", "group": "not fulfilled"}
{"structure": "CCc1occc(=O)c1[O-].F[P-](F)(F)(F)(F)F.[W+4].c1cc[cH-]c1.c1cc[cH-]c1", "group": "not fulfilled"}
{"structure": "Cc1occc(=O)c1[O-].[Cl-].[W+4].c1cc[cH-]c1.c1cc[cH-]c1", "group": "not fulfilled"}
{"structure": "Cc1cc(=O)c([O-])co1.F[P-](F)(F)(F)(F)F.[W+4].c1cc[cH-]c1.c1cc[cH-]c1", "group": "not fulfilled"}
{"structure": "Cc1cc(=S)c([O-])co1.F[P-](F)(F)(F)(F)F.[W+4].c1cc[cH-]c1.c1cc[cH-]c1", "group": "not fulfilled"}
{"structure": "Cc1occc(=S)c1[O-].F[P-](F)(F)(F)(F)F.[W+4].c1cc[cH-]c1.c1cc[cH-]c1", "group": "fulfilled"}
{"structure": "F[P-](F)(F)(F)(F)F.O=C([O-])c1ccccn1.[W+4].c1cc[cH-]c1.c1cc[cH-]c1", "group": "not fulfilled"}
{"structure": "F[P-](F)(F)(F)(F)F.O=c1c([O-])c(-c2ccc(Cl)cc2)oc2ccccc12.[W+4].c1cc[cH-]c1.c1cc[cH-]c1", "group": "fulfilled"}
{"structure": "Cc1c([O-])c(=O)ccn1C.F[P-](F)(F)(F)(F)F.[W+4].c1cc[cH-]c1.c1cc[cH-]c1", "group": "not fulfilled"}

###

Test system: MCF-7 cells
protocol-text: Annexin V-FITC/PI apoptosis assay, MCF-7
conditions: MCF-7, 24 h, 200 µM

{"compound": "Cc1occc(=O)c1[O-].[Cl-].[W+4].c1cc[cH-]c1.c1cc[cH-]c1 [Compound 1A]", "result-unit": "%", "late apoptotic cells [%] AV+ / PI+": 3.2}
{"compound": "Cc1cc(=S)c([O-])co1.F[P-](F)(F)(F)(F)F.[W+4].c1cc[cH-]c1.c1cc[cH-]c1 [Compound 8]", "result-unit": "%", "late apoptotic cells [%] AV+ / PI+": 8.7}
{"compound": "Cc1occc(=S)c1[O-].F[P-](F)(F)(F)(F)F.[W+4].c1cc[cH-]c1.c1cc[cH-]c1 [Compound 2]", "result-unit": "%", "late apoptotic cells [%] AV+ / PI+": 22.7}
{"compound": "Cc1c([O-])c(=O)ccn1C.F[P-](F)(F)(F)(F)F.[W+4].c1cc[cH-]c1.c1cc[cH-]c1 [Compound 6]", "result-unit": "%", "late apoptotic cells [%] AV+ / PI+": 3.6}

###

# reported E1/2; entries follow
protocol-text: Cyclic voltammetry in MeCN (W(IV) to W(V))
Assay type: physicochemical
conditions: vs. NHE, scan rate 200 mV/s

{"structure": "F[P-](F)(F)(F)(F)F.[O-]c1c(-c2ccc(Cl)cc2)oc2ccccc2c1=S.[W+4].c1cc[cH-]c1.c1cc[cH-]c1", "result-unit": "V", "E1/2": 1.082}
{"structure": "Cc1occc(=O)c1[O-].F[P-](F)(F)(F)(F)F.[W+4].c1cc[cH-]c1.c1cc[cH-]c1", "result-unit": "V", "E1/2": 1.037}
{"structure": "CCc1occc(=S)c1[O-].F[P-](F)(F)(F)(F)F.[W+4].c1cc[cH-]c1.c1cc[cH-]c1", "result-unit": "V", "E1/2": 1.064}
{"structure": "F[P-](F)(F)(F)(F)F.O=c1c([O-])c(-c2ccc(Cl)cc2)oc2ccccc12.[W+4].c1cc[cH-]c1.c1cc[cH-]c1", "result-unit": "V", "E1/2": 1.059}

###

# reported viable cells [%] AV- / PI-; entries follow
Test system: MCF-7 cells
protocol-text: Annexin V-FITC/PI apoptosis assay, MCF-7
conditions: MCF-7, 24 h, 200 µM

{"structure": "Cc1c([O-])c(=O)ccn1C.F[P-](F)(F)(F)(F)F.[W+4].c1cc[cH-]c1.c1cc[cH-]c1", "result-unit": "%", "viable cells [%] AV- / PI-": 92.8}
{"structure": "CCc1occc(=O)c1[O-].F[P-](F)(F)(F)(F)F.[W+4].c1cc[cH-]c1.c1cc[cH-]c1", "result-unit": "%", "viable cells [%] AV- / PI-": 87.2}
{"structure": "Cc1cc(=O)c([O-])co1.F[P-](F)(F)(F)(F)F.[W+4].c1cc[cH-]c1.c1cc[cH-]c1", "result-unit": "%", "viable cells [%] AV- / PI-": 87.4}
{"structure": "Cc1occc(=S)c1[O-].F[P-](F)(F)(F)(F)F.[W+4].c1cc[cH-]c1.c1cc[cH-]c1", "result-unit": "%", "viable cells [%] AV- / PI-": 55.1}

###

# reported necrotic cells [%] AV- / PI+; entries follow
Test system: HCT116 cells
protocol-text: Annexin V-FITC/PI apoptosis assay, HCT116
Assay type: cell-based, human
conditions: HCT116, 24 h, 200 µM
assay-endpoint: necrotic cells [%] AV- / PI+ (%)

{"structure": "F[P-](F)(F)(F)(F)F.O=c1c([O-])c(-c2ccc(Cl)cc2)oc2ccccc12.[W+4].c1cc[cH-]c1.c1cc[cH-]c1", "target-of-assay": "HCT116 cells", "result-number": 5.5}
{"structure": "Cc1c([O-])c(=O)ccn1C.F[P-](F)(F)(F)(F)F.[W+4].c1cc[cH-]c1.c1cc[cH-]c1", "target-of-assay": "HCT116 cells", "result-number": 3.1}
{"structure": "F[P-](F)(F)(F)(F)F.O=C([O-])c1ccccn1.[W+4].c1cc[cH-]c1.c1cc[cH-]c1", "target-of-assay": "HCT116 cells", "result-number": 2.4}
{"structure": "Cc1cc(=O)c([O-])co1.F[P-](F)(F)(F)(F)F.[W+4].c1cc[cH-]c1.c1cc[cH-]c1", "target-of-assay": "HCT116 cells", "result-number": 3.6}
{"structure": "Cc1occc(=O)c1[O-].[Cl-].[W+4].c1cc[cH-]c1.c1cc[cH-]c1", "target-of-assay": "HCT116 cells", "result-number": 3.8}
{"structure": "Cc1cc(=S)c([O-])co1.F[P-](F)(F)(F)(F)F.[W+4].c1cc[cH-]c1.c1cc[cH-]c1", "target-of-assay": "HCT116 cells", "result-number": 2.8}
{"structure": "CCc1occc(=O)c1[O-].F[P-](F)(F)(F)(F)F.[W+4].c1cc[cH-]c1.c1cc[cH-]c1", "target-of-assay": "HCT116 cells", "result-number": 2.3}
{"structure": "CCc1occc(=S)c1[O-].F[P-](F)(F)(F)(F)F.[W+4].c1cc[cH-]c1.c1cc[cH-]c1", "target-of-assay": "HCT116 cells", "result-number": 2.4}
{"structure": "Cc1occc(=S)c1[O-].F[P-](F)(F)(F)(F)F.[W+4].c1cc[cH-]c1.c1cc[cH-]c1", "target-of-assay": "HCT116 cells", "result-number": 2.2}

###

Test system: MCF-7 cells
protocol-text: Annexin V-FITC/PI apoptosis assay, MCF-7
conditions: MCF-7, 24 h, 200 µM; sum of early and late
Record Satisfied whenever ∑apoptotic cells [%] is at 9% or higher; record Not satisfied when lower.

{"structure": "Cc1c([O-])c(=O)ccn1C.F[P-](F)(F)(F)(F)F.[W+4].c1cc[cH-]c1.c1cc[cH-]c1", "target-of-assay": "MCF-7 cells", "group": "Not satisfied"}
{"structure": "Cc1cc(=S)c([O-])co1.F[P-](F)(F)(F)(F)F.[W+4].c1cc[cH-]c1.c1cc[cH-]c1", "target-of-assay": "MCF-7 cells", "group": "Satisfied"}
{"structure": "Cc1cc(=O)c([O-])co1.F[P-](F)(F)(F)(F)F.[W+4].c1cc[cH-]c1.c1cc[cH-]c1", "target-of-assay": "MCF-7 cells", "group": "Satisfied"}
{"structure": "Cc1occc(=O)c1[O-].[Cl-].[W+4].c1cc[cH-]c1.c1cc[cH-]c1", "target-of-assay": "MCF-7 cells", "group": "Not satisfied"}

###

# reported late apoptotic cells [%] AV+ / PI+; entries follow
Test system: MCF-7 cells
protocol-text: Annexin V-FITC/PI apoptosis assay, MCF-7
conditions: MCF-7, 24 h, 200 µM

{"compound": "F[P-](F)(F)(F)(F)F.O=C([O-])c1ccccn1.[W+4].c1cc[cH-]c1.c1cc[cH-]c1 [Compound 5]", "late apoptotic cells [%] AV+ / PI+, %": 7.9}
{"compound": "CCc1occc(=O)c1[O-].F[P-](F)(F)(F)(F)F.[W+4].c1cc[cH-]c1.c1cc[cH-]c1 [Compound 9]", "late apoptotic cells [%] AV+ / PI+, %": 8.4}
{"compound": "CCc1occc(=S)c1[O-].F[P-](F)(F)(F)(F)F.[W+4].c1cc[cH-]c1.c1cc[cH-]c1 [Compound 10]", "late apoptotic cells [%] AV+ / PI+, %": 46.3}
{"compound": "Cc1cc(=O)c([O-])co1.F[P-](F)(F)(F)(F)F.[W+4].c1cc[cH-]c1.c1cc[cH-]c1 [Compound 7]", "late apoptotic cells [%] AV+ / PI+, %": 8.1}
